system: MDR1-MDCK cell monolayers; assay: MDR1/MDCK permeability assay; assay type: in vitro ADME; details: A to B; Table 4
Listed below: MDCK Permeability (MDR1-MDCK); Mean; Papp(A-B) (10^−6 cm/s) values for each entry.
reported_metric: MDCK Permeability (MDR1-MDCK); Mean; Papp(A-B) (10^−6 cm/s)

molecule: CCC1(c2cccc(-c3ccnc4c3CCCC4)c2)C2=C(CC(C)(C)CC2=O)Nc2ncc(F)cc21 (single isomer, unassigned) [Compound 165B]
result: 4.4 10^−6 cm/s

molecule: CCC1(c2ccccc2)C2=C(CC3(CCC3)CC2=O)Nc2ncc(F)cc21 (single isomer, unassigned) [Compound 1008A]
result: 22 10^−6 cm/s

molecule: CCC1(c2ccccc2)C2=C(Nc3ncccc31)C(F)C(C)(C)CC2=O (single isomer, unassigned) [Compound 1006C]
result: 18 10^−6 cm/s

molecule: CCC1(c2cccc(-c3cn(C)nc3C)c2)C2=C(CC(C)(C)CC2=O)Nc2ncc(F)cc21 (single isomer, unassigned) [Compound 1032B]
result: 2.3 10^−6 cm/s

molecule: CCC1(c2cccc(-c3ccncc3C)c2)C2=C(CC(C)(C)CC2=O)Nc2ncccc21 (single isomer, unassigned) [Compound 1020B]
result: 14 10^−6 cm/s

molecule: CCC1(c2cccc(-c3ccnc4c3CCC4)c2)C2=C(CC(C)(C)CC2=O)Nc2ncccc21 (single isomer, unassigned) [Compound 1034B]
result: 7.6 10^−6 cm/s

molecule: CCC1(c2ccccc2)C2=C(CC(C)(C)CC2=O)Nc2ncccc21 (single isomer, unassigned) [102 A]
result: 8.7 10^−6 cm/s

molecule: CCC1(c2cccc(-c3cccnc3)c2)C2=C(CC(C)(C)CC2=O)Nc2ncccc21 (single isomer, unassigned) [Compound 1015A]
result: 4.7 10^−6 cm/s

molecule: CCC1(c2cccc(O)c2)C2=C(CC(C)(C)CC2=O)Nc2ncccc21 (single isomer, unassigned) [Compound 1004B]
result: 0.7 10^−6 cm/s

molecule: CCC1(c2ccccc2)C2=C(CC3(CCC3)CC2=O)Nc2ncccc21 (single isomer, unassigned) [Compound 110A]
result: 22 10^−6 cm/s

molecule: CCC1(c2cccc(-c3ccnc4c3CCCC4)c2)C2=C(CC(C)(C)CC2=O)Nc2ncccc21 (single isomer, unassigned) [Compound 1039B]
result: 6.6 10^−6 cm/s

molecule: CCC1(c2ccccc2)C2=C(CC(C)(C)NC2=O)Nc2ncc(F)cc21 (single isomer, unassigned) [Compound 1007B]
result: 7.8 10^−6 cm/s

molecule: CCC1(c2cccc(-c3ccnc(C)c3C)c2)C2=C(CC(C)(C)CC2=O)Nc2ncccc21 (single isomer, unassigned)
result: 8.1 10^−6 cm/s

molecule: CCC1(c2cccc(-c3c(C)nn(C)c3C)c2)C2=C(CC(C)(C)CC2=O)Nc2ncccc21 (single isomer, unassigned) [Compound 150B]
result: 2.9 10^−6 cm/s

molecule: CCC1(c2cccc(O)c2)C2=C(CC(C)(C)CC2=O)Nc2ncccc21 (single isomer, unassigned) [Compound 1004A]
result: 1.2 10^−6 cm/s

molecule: CCC1(c2ccccc2)C2=C(CC(C)(C)CC2=O)Nc2ncc(C(F)(F)F)cc21 (single isomer, unassigned) [Compound 133B]
result: 11 10^−6 cm/s

---

Target: GSK3a (GST-full length GSK3a) (Homo sapiens, UniProt P49840)
Construct: GST-full length GSK3a [SignalChem G08-10G]; purchased SignalChem G08-10G
Sequence (P49840 whole entry): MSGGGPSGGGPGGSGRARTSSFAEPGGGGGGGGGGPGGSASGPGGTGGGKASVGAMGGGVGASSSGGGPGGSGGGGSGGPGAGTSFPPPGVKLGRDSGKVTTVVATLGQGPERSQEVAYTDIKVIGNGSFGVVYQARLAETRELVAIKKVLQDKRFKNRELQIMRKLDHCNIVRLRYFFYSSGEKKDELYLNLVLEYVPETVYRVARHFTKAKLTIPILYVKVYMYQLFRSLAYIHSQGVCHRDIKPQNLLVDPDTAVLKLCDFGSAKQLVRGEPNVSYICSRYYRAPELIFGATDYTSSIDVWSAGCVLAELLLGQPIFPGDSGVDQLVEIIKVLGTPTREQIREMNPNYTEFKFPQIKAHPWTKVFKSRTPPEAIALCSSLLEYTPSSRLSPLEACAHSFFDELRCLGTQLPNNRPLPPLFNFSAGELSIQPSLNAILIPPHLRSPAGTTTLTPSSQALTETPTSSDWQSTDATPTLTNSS
Experiment: GSK3a TR-FRET kinase inhibition assay
Type: biochemical
Conditions: 1 mM ATP; Table 5; read-out: GSK3α TR-FRET 1 mM ATP Average IC50
Procedure: TR-FRET assay was performed in a white, 384 well, low volume, flat bottom plate (Grenier). After a 30 minute preincubation in assay buffer with the indicated concentration of compound, the kinase activity was initiated by the addition of the substrates. […] After 60 min at room temperature the plate was read on Envision plate reader using Ex: 340 nm, Em: 615 nm and […]. The normalized 665/615 Signal ratio versus log compound concentration was analyzed by XLFIT to yield IC50 values.
reported_metric: IC50

compound: CC(C)Oc1cccc(C2(C)C3=C(CC(C)(C)CC3=O)Nc3ncc(F)cc32)c1 (single isomer, unassigned) [629B]
result: 0.1 to 1 µM

compound: CC1(C)CC2=C(C(=O)[C@H]1F)[C@](C)(c1ccccc1)c1c(ncc(F)c1C#N)N2 (single isomer, unassigned) [Compound 616D]
result: 5 to 20 µM

compound: Cc1cnc2c(c1C)C(C)(c1ccccc1)C1=C(CC(C)(C)CC1=O)N2 (single isomer, unassigned) [601A]
result: 1 to 5 µM

compound: CC(C)Oc1cccc(C2(C)C3=C(CC(C)(C)CC3=O)Nc3ncc(F)c(C#N)c32)c1 (single isomer, unassigned) [639A]
result: 5 to 20 µM

compound: CC1(C)CC(=O)C2=C(C1)Nc1ncc(F)cc1C2(C)c1cccc(-c2ccncc2CC(F)(F)F)c1 (single isomer, unassigned) [653B]
result: ≤ 0.1 µM

compound: CC1(C)CC2=C(C(=O)N1)C(C)(c1cccc(S(C)(=O)=O)c1)c1cccnc1N2 (single isomer, unassigned) [630A]
result: ≤ 0.1 µM
